Molecular target: CouP (RPA1789) (Rhodopseudomonas palustris, UniProt Q6N8W4)
Assay: Isothermal titration calorimetry (ITC) with RPA1789
OBSERVABLE: pKd
Interpret pKd as the negative base-10 log of the concentration measured in mol/L.

Request: Requested read-out pKd, target or system CouP (RPA1789) (Rhodopseudomonas palustris, UniProt Q6N8W4), entry O=C(O)/C=C/c1ccc(O)c(O)c1 [Caffeate]
Result: 7.57

====

Molecular target: CouP (RPA1789) (Rhodopseudomonas palustris)
Sequence (Q6N8W4 27-385): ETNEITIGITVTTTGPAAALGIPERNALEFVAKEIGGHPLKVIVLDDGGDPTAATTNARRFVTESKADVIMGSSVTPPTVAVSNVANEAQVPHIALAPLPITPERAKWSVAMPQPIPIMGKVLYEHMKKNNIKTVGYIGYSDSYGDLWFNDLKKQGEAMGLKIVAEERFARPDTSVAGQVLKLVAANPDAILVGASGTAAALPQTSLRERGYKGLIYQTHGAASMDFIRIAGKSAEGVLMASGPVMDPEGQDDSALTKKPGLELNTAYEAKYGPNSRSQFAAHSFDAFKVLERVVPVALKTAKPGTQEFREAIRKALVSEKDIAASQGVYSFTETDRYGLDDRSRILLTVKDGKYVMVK
Test: Isothermal titration calorimetry (ITC) with RPA1789
Type: binding
Settings: ITC, 20°C, 50 µM protein, 50 mM Tris-HCl pH 7.2 plus 100 mM NaCl
ΔH (binding enthalpy) values, listed per item

MOLECULE	ΔH (binding enthalpy)
O=C(O)/C=C/c1ccc(O)cc1 [Coumarate, (E)-3-(4-hydroxyphenyl)-2-propenoic acid]	3.23 ± 0.03 kcal/mol
COc1cc(/C=C/C(=O)O)ccc1O [Ferulate]	3.18 ± 0.03 kcal/mol

Please examine the following record next.
Request: Quick check: ΔH (binding enthalpy) of O=C(O)/C=C/c1ccccc1 [Cinnamate, (E)-3-phenyl-2-propenoic acid] ?
Result: 7.45 ± 0.08 kcal/mol
